System: 379773-124-R-J2-PDC complex spheroids, viability % test/control;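 also: compound exposure lasted seven days before the viability readout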
Assay: Anticancer human tumor 379773-124-R-J2-PDC patient-derived endometrial carcinoma cell line growth inhibition [CLK]; active = viability on the fitted dose curve at most 10% of control; inactive = the rest
Details: second compound 0.1 µM; first compound 0.0316 µM
Possible outcomes: t (active), f (inactive)

>  <MOLECULE>
Nc1ccn(C2OC(CO)C(O)C2(F)F)c(=O)n1 (stereo not given) + CN1CCN(c2cc(C(=O)Nc3cc4cc(-c5cnn(C)c5)ccc4cn3)ccn2)CC1

>  <ASSIGNED CLASS>
f

$$$$
>  <MOLECULE>
COc1ccc([C@@H](O)c2cc(-c3ncnc4cc(N5CCOCC5)ccc34)c(F)cc2Cl)nn1 + CNC(=O)c1ccc(Nc2nc(OC3CCCC3)c3c(-c4ccc5nc(C)oc5c4)c[nH]c3n2)c(OC)c1

>  <ASSIGNED CLASS>
f

$$$$
>  <MOLECULE>
Nc1ccn(C2OC(CO)C(O)C2(F)F)c(=O)n1 (stereo not given) + CNC(=O)c1ccc(Nc2nc(OC3CCCC3)c3c(-c4ccc5nc(C)oc5c4)c[nH]c3n2)c(OC)c1

>  <ASSIGNED CLASS>
t

$$$$
>  <MOLECULE>
CCCS(=O)(=O)Nc1ccc(F)c(C(=O)c2c[nH]c3ncc(-c4ccc(Cl)cc4)cc23)c1F + CNC(=O)c1ccc(Nc2nc(OC3CCCC3)c3c(-c4ccc5nc(C)oc5c4)c[nH]c3n2)c(OC)c1

>  <ASSIGNED CLASS>
f

$$$$
>  <MOLECULE>
Cn1ncnc1[C@H]1c2n[nH]c(=O)c3cc(F)cc(c23)N[C@@H]1c1ccc(F)cc1 + CNC(=O)c1ccc(Nc2nc(OC3CCCC3)c3c(-c4ccc5nc(C)oc5c4)c[nH]c3n2)c(OC)c1

>  <ASSIGNED CLASS>
f

$$$$
